test: Antimelanogenic activity in mouse B16-4A5 cells assessed as inhibition of theophylline-induced melanin production at 3 uM after 72 hrs by spectrophotometry relative to control; type: functional; conditions: B16-4A5, 72 h
Threshold check on inhibition at 3 µM: at or above 20% gives yes, strictly below gives no.

Some entries whose results are on file:
CC(=O)O[C@H](CCc1ccc(O)c(O)c1)C[C@H](O)CCc1ccc(O)c(O)c1; no
Oc1ccc(CC[C@@H](O)C[C@H](O)CCc2ccc(O)cc2)cc1 [(+)-HANNOKINOL]; yes
Oc1ccc(/C=C/CC[C@@H](O)CCc2ccc(O)cc2)cc1; yes
O=C(/C=C/C=C/c1ccc(O)c(O)c1)CCc1ccc(O)cc1; yes

In the following, a different compound is considered.
[in] Reported inhibition at 3 µM reaches at least 20% for COc1cc(CC[C@@H](O)CC(=O)CCc2ccc(O)cc2)ccc1O ?
[out] no
